Would you mind telling me the reported Ki of each entry?
- SYSTEM TESTED: α-amylase from porcine pancreas (Sus scrofa)
- Construct: A saline suspension of α-amylase from porcine pancreas; purchased Sigma Aldrich (Steinheim, Germany) Lot #SLBN9170V (catalogue number not given); host or cells: porcine pancreas (tissue-derived)
- Sequence (P00690 16-511): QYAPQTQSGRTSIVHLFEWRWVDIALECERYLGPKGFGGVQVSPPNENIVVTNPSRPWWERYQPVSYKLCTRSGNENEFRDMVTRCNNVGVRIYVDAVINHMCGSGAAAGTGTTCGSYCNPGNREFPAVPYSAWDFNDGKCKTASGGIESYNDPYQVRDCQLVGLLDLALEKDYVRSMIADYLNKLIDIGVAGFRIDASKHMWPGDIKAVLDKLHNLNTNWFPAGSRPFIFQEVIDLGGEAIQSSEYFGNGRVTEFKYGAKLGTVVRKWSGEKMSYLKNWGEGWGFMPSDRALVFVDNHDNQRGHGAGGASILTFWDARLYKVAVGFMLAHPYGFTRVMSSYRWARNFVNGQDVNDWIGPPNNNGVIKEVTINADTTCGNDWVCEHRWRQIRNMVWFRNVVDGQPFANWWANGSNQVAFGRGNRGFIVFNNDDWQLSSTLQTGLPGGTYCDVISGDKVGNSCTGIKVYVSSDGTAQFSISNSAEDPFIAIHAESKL
- ASSAY REMARKS: α-amylase enzyme activity assay, GalG2CNP conversion, UV/Vis detection of CNP at 405 nm
- Format: biochemical
- STUDY CONDITIONS: mean over inhibitor c 12,5, 25, 50 µM (Supplementary 2); read-out: Kic mean ± SD
I'd appreciate it if you wrote the number followed by its unit.

Task: Query: Ki; subject: OC[C@H]1O[C@@H](Oc2cc3c(O)cc(O)cc3[o+]c2-c2cc(O)c(O)c(O)c2)[C@H](O)[C@@H](O)[C@@H]1O [Dpd-glc, delphinidin-3-glucoside]
Result: 63 µM

Task: Query: Ki; subject: COc1cc(-c2[o+]c3cc(O)cc(O)c3cc2O[C@@H]2O[C@H](CO)[C@@H](O)[C@H](O)[C@H]2O)ccc1O [Peo-glc, peonidin-3-glucoside]
Result: 133 µM

###

- SYSTEM TESTED: α-amylase from porcine pancreas (Sus scrofa)
- Construct: A saline suspension of α-amylase from porcine pancreas; purchased Sigma Aldrich (Steinheim, Germany) Lot #SLBN9170V (catalogue number not given); host or cells: porcine pancreas (tissue-derived)
- Sequence (P00690 16-511): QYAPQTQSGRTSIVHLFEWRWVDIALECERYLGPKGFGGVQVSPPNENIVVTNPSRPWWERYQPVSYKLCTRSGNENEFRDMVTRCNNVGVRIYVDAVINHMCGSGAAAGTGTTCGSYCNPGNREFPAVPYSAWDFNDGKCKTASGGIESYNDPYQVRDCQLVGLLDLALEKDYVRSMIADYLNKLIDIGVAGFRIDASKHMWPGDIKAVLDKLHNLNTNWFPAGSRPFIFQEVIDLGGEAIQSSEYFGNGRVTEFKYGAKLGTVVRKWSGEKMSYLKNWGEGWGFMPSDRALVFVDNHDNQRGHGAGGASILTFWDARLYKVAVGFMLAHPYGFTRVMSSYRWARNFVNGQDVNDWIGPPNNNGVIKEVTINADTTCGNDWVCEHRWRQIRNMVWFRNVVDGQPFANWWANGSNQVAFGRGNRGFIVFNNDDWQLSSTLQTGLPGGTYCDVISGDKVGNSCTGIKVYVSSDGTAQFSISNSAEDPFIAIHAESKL
- ASSAY REMARKS: α-amylase enzyme activity assay, GalG2CNP conversion, UV/Vis detection of CNP at 405 nm
- Assay type: biochemical
- STUDY CONDITIONS: from apparent values; inhibitor c 12,5 µM; read-out: Kiu
- Method: The enzyme activity assay, […], was established by Homoki and co-workers and already used by the authors to evaluate the inhibitory strength of different phenolic structures. To enable the evaluation of the result obtained in the present study compared to the non-anthocyanin phenolics investigated previously, the assay conditions were identical. […] To quantify the reaction product, a linear calibration with eight different CNP concentrations in the range of 0−35 µM was performed for each plate. […]
Would you mind telling me the reported pKi of each entry?
Remember, pKi is on a log scale: it is -log10 of the molar concentration.

Task: Query: pKi; subject: OC[C@H]1O[C@@H](Oc2cc3c(O)cc(O)cc3[o+]c2-c2ccc(O)cc2)[C@H](O)[C@@H](O)[C@@H]1O [Plg-glc, pelargonidin-3-glucoside]
Result: 3.73

Task: Query: pKi; subject: OC[C@H]1O[C@@H](Oc2cc3c(O)cc(O)cc3[o+]c2-c2cc(O)c(O)c(O)c2)[C@H](O)[C@@H](O)[C@@H]1O [Dpd-glc, delphinidin-3-glucoside]
Result: 3.44

Task: Query: pKi; subject: COc1cc(-c2[o+]c3cc(O)cc(O)c3cc2O[C@@H]2O[C@H](CO)[C@@H](O)[C@H](O)[C@H]2O)ccc1O [Peo-glc, peonidin-3-glucoside]
Result: 3.44

Task: Query: pKi; subject: OC[C@H]1O[C@@H](Oc2cc3c(O)cc(O)cc3[o+]c2-c2ccc(O)c(O)c2)[C@H](O)[C@@H](O)[C@@H]1O [Cyd-glc, cyanidin-3-glucoside]
Result: 3.84
